assay: Probe fluorescence ratio response to linolenic acid relative to ADIFAB2; assay type: binding; conditions: response relative to ADIFAB2
measurement_kind: DR/DR LNA
Field format: numeric only.

Identify measured DR/DR LNA corresponding to 72D (protein, listed as Rattus norvegicus, PEPTIDE (1)...(131) wild-type rat intestinal fatty acid binding protein) AFDGTWKVDRNENYEKFMEKMGINVVKRKLGAHDNLKLTITQEGNKFTVKESSNFRNIDVVFELGVDFAYSDADGTELTGTWTMEGNKLVGKFKRVDNGKELIAVREISGNELIQTYTYEGVEAKRIFKKE 0.41

Identify measured DR/DR LNA corresponding to 21I, 72A (protein, listed as Rattus norvegicus, PEPTIDE (1)...(131) wild-type rat intestinal fatty acid binding protein) AFDGTWKVDRNENYEKFMEKIGINVVKRKLGAHDNLKLTITQEGNKFTVKESSNFRNIDVVFELGVDFAYSAADGTELTGTWTMEGNKLVGKFKRVDNGKELIAVREISGNELIQTYTYEGVEAKRIFKKE 0.412

Identify measured DR/DR LNA corresponding to 78Y, 72A (protein, listed as Rattus norvegicus, PEPTIDE (1)...(131) wild-type rat intestinal fatty acid binding protein) AFDGTWKVDRNENYEKFMEKMGINVVKRKLGAHDNLKLTITQEGNKFTVKESSNFRNIDVVFELGVDFAYSAADGTEYTGTWTMEGNKLVGKFKRVDNGKELIAVREISGNELIQTYTYEGVEAKRIFKKE 0.871

Data provenance: patent US20060257938A1
